assay: Drug uptake in C57 mouse brain at 80 mg/kg, po after 20 hrs by LC/MS analysis; type: ADME, organism-based; set-up: dose 80 mg/kg, route oral; settings: read-out: Drug uptake
result_type: concentration at 20 h

compound_string	result
Cc1cc(C2CCN(C(=O)[C@@H]3CN(C(C)(C)C)C[C@H]3c3ccc(F)cc3F)CC2)n(-c2ccc(F)c(F)c2)n1	1180 nM

---

target: Mus musculus; assay: Ex-vivo inhibition of po dosed mouse PrCP in the absence of plasma by FRET analysis; assay type: functional, organism-based
Listed compounds paired with reported Ki

compound_string	unit_label	Ki
O=C([C@@H]1CNC[C@H]1c1ccc(F)cc1F)N1CCC(c2ccnn2-c2ccc(F)c(Cl)c2)CC1	nM	2.9
Cc1cc(C2CCN(C(=O)[C@@H]3CN(C(C)(C)C)C[C@H]3c3ccc(F)cc3F)CC2)n(-c2ccc(F)c(Cl)c2)n1	nM	0.9
C[C@@H](c1ccc(-c2ccccc2)cc1)[C@H](NC(=O)C(C)(C)N)C(=O)N1CCC[C@H]1c1nc2cc(Cl)c(Cl)cc2[nH]1	nM	0.7
Cc1cc(C2CCN(C(=O)[C@@H]3CN(C(C)(C)C)C[C@H]3c3ccc(F)cc3F)CC2)n(-c2ccc(Cl)cc2Cl)n1	nM	1.1
Cc1cc(C2CCN(C(=O)[C@@H]3CNC[C@H]3c3ccc(F)cc3F)CC2)n(-c2ccc(Cl)c(Cl)c2)n1	nM	19.6
Cc1cc(C2CCN(C(=O)[C@@H]3CN(C(C)(C)C)C[C@H]3c3ccc(F)cc3F)CC2)n(-c2ccc(Cl)c(F)c2)n1	nM	3.6
Cc1cc(C2CCN(C(=O)[C@@H]3CN(C(C)(C)C)C[C@H]3c3ccc(F)cc3F)CC2)n(-c2ccc(Cl)cc2F)n1	nM	1.5
Cc1cc(C2CCN(C(=O)[C@@H]3CN(C(C)(C)C)C[C@H]3c3ccc(F)cc3F)CC2)n(-c2ccc(Cl)c(Cl)c2)n1	nM	1.7
Cc1cc(C2CCN(C(=O)[C@@H]3CN(C(C)(C)C)C[C@H]3c3ccc(F)cc3F)CC2)n(-c2ccc(F)c(F)c2)n1	nM	6.4
Cc1nc(C2CCN(C(=O)[C@@H]3CN(C(C)(C)C)C[C@H]3c3ccc(F)cc3F)CC2)n(-c2ccc(Cl)c(C)c2)n1	nM	1
Cc1cc(C2CCN(C(=O)[C@@H]3CN(C(C)(C)C)C[C@H]3c3ccc(F)cc3F)CC2)n(-c2cc(Cl)ccc2Cl)n1	nM	0.4
Cc1cc(C2CCN(C(=O)[C@@H]3CN(C(C)(C)C)C[C@H]3c3ccc(F)cc3F)CC2)n(-c2ccc(F)cc2F)n1	nM	5.2
CC(C)(C)N1C[C@@H](C(=O)N2CCC(c3ccnn3-c3ccc(F)c(Cl)c3)CC2)[C@H](c2ccc(F)cc2F)C1	nM	0.5
Cc1cc(C2CCN(C(=O)[C@@H]3CN(C(C)(C)C)C[C@H]3c3ccc(F)cc3F)CC2)n(-c2cc(Cl)ccc2F)n1	nM	1.2
Cc1nc(C2CCN(C(=O)[C@H]3CN(C(C)(C)C)C[C@@H]3c3ccc(F)cc3F)CC2)n(-c2ccc(Cl)c(C)c2)n1	nM	3
Cc1cc(C2CCN(C(=O)[C@@H]3CNC[C@H]3c3ccc(F)cc3F)CC2)n(-c2ccc(F)c(Cl)c2)n1	nM	8.3
Cc1cc(C2CCN(C(=O)[C@@H]3CNC[C@H]3c3ccc(F)cc3F)CC2)n(-c2cc(Cl)ccc2Cl)n1	nM	4.2
